This collection of values is drawn from ChEMBL document CHEMBL5705899.

Molecular target: Phosphatidylinositol 4,5-bisphosphate 3-kinase catalytic subunit alpha isoform (Homo sapiens, UniProt P42336)
Sequence (P42336 whole entry, canonical isoform): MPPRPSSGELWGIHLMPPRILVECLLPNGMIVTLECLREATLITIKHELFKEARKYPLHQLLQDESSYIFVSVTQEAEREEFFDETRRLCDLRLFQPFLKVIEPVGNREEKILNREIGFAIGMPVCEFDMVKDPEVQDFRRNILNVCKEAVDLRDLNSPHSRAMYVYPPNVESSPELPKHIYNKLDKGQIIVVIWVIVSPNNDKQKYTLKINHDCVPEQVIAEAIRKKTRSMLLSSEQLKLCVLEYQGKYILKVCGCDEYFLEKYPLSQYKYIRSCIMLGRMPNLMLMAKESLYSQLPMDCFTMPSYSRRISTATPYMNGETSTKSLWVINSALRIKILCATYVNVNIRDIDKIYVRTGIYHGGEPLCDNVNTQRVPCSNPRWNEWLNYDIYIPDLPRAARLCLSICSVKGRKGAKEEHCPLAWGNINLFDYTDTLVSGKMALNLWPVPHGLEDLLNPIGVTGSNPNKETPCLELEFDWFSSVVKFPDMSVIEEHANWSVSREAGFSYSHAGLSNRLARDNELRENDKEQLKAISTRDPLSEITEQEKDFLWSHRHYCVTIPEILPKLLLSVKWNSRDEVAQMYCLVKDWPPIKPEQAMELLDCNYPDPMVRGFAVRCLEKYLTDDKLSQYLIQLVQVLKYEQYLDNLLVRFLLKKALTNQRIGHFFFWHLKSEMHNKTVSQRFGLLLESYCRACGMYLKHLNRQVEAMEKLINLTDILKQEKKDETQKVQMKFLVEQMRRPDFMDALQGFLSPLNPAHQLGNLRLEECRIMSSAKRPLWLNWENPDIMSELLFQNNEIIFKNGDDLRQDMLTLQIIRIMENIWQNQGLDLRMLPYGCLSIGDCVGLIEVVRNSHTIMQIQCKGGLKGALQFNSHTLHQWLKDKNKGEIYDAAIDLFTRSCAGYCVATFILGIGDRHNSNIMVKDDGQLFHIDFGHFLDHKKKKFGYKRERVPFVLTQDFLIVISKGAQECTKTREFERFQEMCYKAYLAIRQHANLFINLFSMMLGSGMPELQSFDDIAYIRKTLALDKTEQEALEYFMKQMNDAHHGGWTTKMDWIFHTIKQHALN
Assay: Inhibition of PI3Kalpha (unknown origin) using PtdIns(4,5)P2 as substrate preincubated for 20 mins followed by substrate addition and measured after 80 mins by Kinase-Glo assay
Test Readout: IC50 (µM)
Write the answer as a number in µM, unit excluded.

Query (compound): CC(C)(O)CNc1ncc(-c2ccnc(Nc3ccnc(Cl)c3)n2)c(CC2CC2)n1 ; field requested: IC50
8.04

----------
Molecular target: Phosphatidylinositol 4-phosphate 3-kinase C2 domain-containing subunit alpha (Homo sapiens, UniProt O00443)
Sequence (O00443 whole entry, the tested form may be a part): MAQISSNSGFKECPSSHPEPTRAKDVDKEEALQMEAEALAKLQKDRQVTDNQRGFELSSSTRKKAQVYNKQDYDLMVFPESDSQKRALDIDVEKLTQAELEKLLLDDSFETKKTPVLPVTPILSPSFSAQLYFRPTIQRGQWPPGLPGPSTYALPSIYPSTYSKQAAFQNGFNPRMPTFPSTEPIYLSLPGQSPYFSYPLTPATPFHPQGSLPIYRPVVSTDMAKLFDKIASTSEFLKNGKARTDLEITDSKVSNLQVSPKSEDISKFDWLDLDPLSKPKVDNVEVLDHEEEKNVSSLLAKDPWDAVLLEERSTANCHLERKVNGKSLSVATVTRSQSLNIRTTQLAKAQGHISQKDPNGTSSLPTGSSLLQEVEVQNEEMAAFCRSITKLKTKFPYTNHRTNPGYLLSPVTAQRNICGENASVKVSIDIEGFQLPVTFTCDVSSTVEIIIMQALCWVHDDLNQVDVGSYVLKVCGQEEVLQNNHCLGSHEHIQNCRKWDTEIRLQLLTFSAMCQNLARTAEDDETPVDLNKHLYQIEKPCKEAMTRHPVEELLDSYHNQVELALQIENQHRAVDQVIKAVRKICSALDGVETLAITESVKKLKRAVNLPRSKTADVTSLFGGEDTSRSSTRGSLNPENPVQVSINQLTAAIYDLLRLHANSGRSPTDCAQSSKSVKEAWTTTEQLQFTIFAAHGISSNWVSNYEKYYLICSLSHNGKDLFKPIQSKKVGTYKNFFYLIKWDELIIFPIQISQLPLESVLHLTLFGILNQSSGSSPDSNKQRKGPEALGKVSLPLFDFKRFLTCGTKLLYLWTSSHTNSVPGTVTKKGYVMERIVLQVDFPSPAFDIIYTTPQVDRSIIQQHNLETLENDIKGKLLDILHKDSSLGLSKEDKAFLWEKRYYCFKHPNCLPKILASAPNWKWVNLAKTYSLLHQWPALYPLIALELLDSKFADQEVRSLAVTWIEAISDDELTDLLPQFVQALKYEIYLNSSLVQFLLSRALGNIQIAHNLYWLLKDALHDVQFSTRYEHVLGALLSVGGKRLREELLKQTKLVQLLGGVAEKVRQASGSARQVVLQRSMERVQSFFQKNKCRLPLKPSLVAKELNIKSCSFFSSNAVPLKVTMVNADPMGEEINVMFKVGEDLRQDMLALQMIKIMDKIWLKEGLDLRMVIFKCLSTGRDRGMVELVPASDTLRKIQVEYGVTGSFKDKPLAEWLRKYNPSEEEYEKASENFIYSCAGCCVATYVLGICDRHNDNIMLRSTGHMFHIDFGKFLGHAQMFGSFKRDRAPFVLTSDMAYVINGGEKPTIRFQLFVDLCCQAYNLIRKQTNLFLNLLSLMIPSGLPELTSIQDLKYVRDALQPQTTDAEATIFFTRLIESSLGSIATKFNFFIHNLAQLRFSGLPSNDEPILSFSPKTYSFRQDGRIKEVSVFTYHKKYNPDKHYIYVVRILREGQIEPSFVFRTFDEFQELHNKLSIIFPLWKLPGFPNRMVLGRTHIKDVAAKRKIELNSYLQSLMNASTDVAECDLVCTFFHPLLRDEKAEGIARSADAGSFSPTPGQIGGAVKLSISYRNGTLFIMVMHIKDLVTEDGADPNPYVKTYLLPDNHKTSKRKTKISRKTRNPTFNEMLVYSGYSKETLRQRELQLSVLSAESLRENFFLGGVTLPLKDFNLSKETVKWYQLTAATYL
Test: Inhibition of human PIK3C2A using PIP2/PS as substrate by ADP-Glo assay
Test Readout: IC50

# IC50 lookup, item CC(C)(O)CNc1ncc(-c2ccnc(Nc3ccnc(Cl)c3)n2)c(CC2CC2)n1
> 10 µM
